Sourced from patent US12509460B2

- Test system: MDR1
- Run Description: Blood-brain-barrier (BBB) penetration potential via MDCK-MDR1 permeability assay
- Setup Conditions: dog, MDCK-MDR1, pH 7.4, MDCK-MDR1: Efflux, efflux ratio

{"Compound": "CN(c1ccc(-c2ccc(-n3ccnc3)cc2O)nn1)[C@@H]1C[C@H]2CC(F)(F)[C@@H](C1)N2 [Compound 13A]", "efflux ratio at 120 min, 5 μM": 6}
{"Compound": "CN(c1ccc(-c2ccc(C#N)cc2O)nn1)[C@H]1C[C@@H]2CC[C@@H](N2)[C@H]1F [Compound 38B]", "efflux ratio at 120 min, 5 μM": 2}
{"Compound": "CN(c1ccc(-c2ccc(-c3cnn(C(F)F)c3)cc2O)nn1)[C@@H]1C[C@H]2CC[C@H](N2)[C@@H]1F [Compound 20A]", "efflux ratio at 120 min, 5 μM": 9}
{"Compound": "CN(c1ccc(-c2cc3cncnc3cc2O)nn1)[C@H]1C[C@@H]2CC[C@@H](N2)[C@H]1F [Compound 75B]", "efflux ratio at 120 min, 5 μM": 21}
{"Compound": "CN(c1ccc(-c2ccc(-c3cnc(C#N)cn3)cc2O)nn1)[C@@H]1C[C@H]2CCC[C@H](N2)[C@@H]1F [Compound 28A]", "efflux ratio at 120 min, 5 μM": 20}
{"Compound": "CN(c1ccc(-c2ccc(-c3nnco3)cc2O)nn1)[C@@H]1C[C@H]2CC[C@H](N2)[C@@H]1F [Compound 44A]", "efflux ratio at 120 min, 5 μM": 6}
{"Compound": "CN(c1ccc(-c2cc3cnn(C)c3cc2O)nn1)[C@@H]1C[C@H]2CC[C@H](N2)[C@@H]1F [Compound 76A]", "efflux ratio at 120 min, 5 μM": 12}
{"Compound": "CN(c1ccc(-c2cc3c(=O)n(C)ccc3s2)nn1)[C@@H]1C[C@H]2CC[C@H](N2)[C@@H]1F (single isomer, unassigned) [Compound 68A]", "efflux ratio at 120 min, 5 μM": 111}
{"Compound": "COc1cn(-c2ccc(-c3ccc(N(C)[C@@H]4C[C@H]5CC(F)(F)[C@@H](C4)N5)nn3)c(O)c2)cn1 [Compound 19A]", "efflux ratio at 120 min, 5 μM": 6}
{"Compound": "CN(c1ccc(-c2cc3ncn(C)c(=O)c3cc2O)nn1)[C@H]1C[C@@H]2CC[C@@H](N2)[C@H]1F [Compound 51B]", "efflux ratio at 120 min, 5 μM": 55}
{"Compound": "COc1cnc(-c2ccc(-c3ccc(N(C)[C@@H]4C[C@H]5CCC[C@H](N5)[C@@H]4F)nn3)c(O)c2)cn1 [Compound 29A]", "efflux ratio at 120 min, 5 μM": 7}
{"Compound": "CN(c1ccc(-c2cc3c(=O)[nH]ccc3s2)nn1)[C@@H]1C[C@H]2CC[C@H](N2)[C@@H]1F", "efflux ratio at 120 min, 5 μM": 74}
{"Compound": "CN(c1ccc(-c2cc3ccn(C)c(=O)c3cc2O)nn1)[C@H]1C[C@@H]2CC[C@@H](N2)[C@H]1F [Compound 84B]", "efflux ratio at 120 min, 5 μM": 48}
{"Compound": "CN(c1ccc(-c2ccc(C3=CCCC3)cc2O)nn1)[C@@H]1C[C@H]2CC[C@H](N2)[C@@H]1F [Compound 34A]", "efflux ratio at 120 min, 5 μM": 2}

---

- System: MDR1
- Run Description: Blood-brain-barrier (BBB) penetration potential via MDCK-MDR1 permeability assay
- Setup Conditions: dog, MDCK-MDR1, pH 7.4, MDCK-MDR1: Efflux, efflux ratio
Kindly return y if reported efflux ratio at 120 min, 5 μM is no lower than 40; return n if it is lower.

{"Molecule": "O=C(c1cc2cc(O)c(-c3ccc(N(C4CC4)[C@H]4C[C@@H]5CC[C@@H](N5)[C@H]4F)nn3)cc2o1)N1CCC1 [Compound 57B]", "Qualitative Label": "y"}
{"Molecule": "CN(c1ccc(-c2ccc(-c3cnc(C#N)cn3)cc2O)nn1)[C@H]1C[C@@H]2CCC[C@@H](N2)[C@H]1F [Compound 28B]", "Qualitative Label": "n"}
{"Molecule": "CN(c1ccc(-c2cc(F)c(-c3ccn(C)c(=O)c3)cc2O)nn1)[C@@H]1C[C@H]2CC[C@H](N2)[C@@H]1F [Compound 1A]", "Qualitative Label": "y"}
{"Molecule": "Cc1cc(=O)c2cc(O)c(-c3ccc(N(C)[C@H]4C[C@@H]5CC[C@@H](N5)[C@H]4F)nn3)cc2o1 [Compound 49B]", "Qualitative Label": "n"}
{"Molecule": "CN(c1ccc(-c2cc3ncn(CC(F)(F)F)c(=O)c3cc2O)nn1)[C@@H]1C[C@H]2CC(F)(F)[C@@H](C1)N2 [Compound 59A]", "Qualitative Label": "n"}
{"Molecule": "CN(c1ccc(-c2ccc(-c3cnccn3)cc2O)nn1)[C@H]1C[C@@H]2CCC[C@@H](N2)[C@H]1F [Compound 24B]", "Qualitative Label": "n"}
{"Molecule": "CN(c1ccc(-c2ccc(-n3ccnc3)cc2O)nn1)[C@@H]1C[C@H]2CC[C@H](N2)[C@@H]1F [Compound 4A]", "Qualitative Label": "n"}

---

- Test system: mHTT protein in GM04724 (CAG 70/20) Huntington's disease patient lymphoblast cells
- Run Description: mHTT protein assay, 2B7-MW1 assay via Mesoscale Discovery (MSD)
- Format: cell-based, human
- Setup Conditions: GM04724 Huntington's disease patient lymphoblasts
- Procedure: Example A10: mHTT Protein Assay Compounds are tested on GM04724 (CAG 70/20) Huntington's disease patient lymphoblast cells at doses ranging from 10 μM to 0.6 nM. 4,500 cells/well are seeded in 384 well plates. […] Compounds are incubated for 48 hours. mHTT protein levels are assessed by the 2B7-MW1 assay via Mesoscale Discovery (MSD) as previously reported (Macdonald et al., 2014). […] The viability readout is carried out by CTG according to the manufacturer's instructions.
Quick list: EC50 per entry.
Assay Readout: EC50

{"Molecule": "CN(c1ccc(-c2ccc(-c3nnco3)cc2O)nn1)[C@@H]1C[C@H]2CC[C@H](N2)[C@@H]1F [Compound 44A]", "Assay Readout": "EC50", "Test Value": "0.01 to 15 nM"}
{"Molecule": "Cc1ccc(-c2ccc(-c3ccc(N(C)[C@@H]4C[C@H]5CC[C@H](N5)[C@@H]4F)nn3)c(O)c2)nn1 (single isomer, unassigned) [Compound 25A]", "Assay Readout": "EC50", "Test Value": "101 to 500 nM"}
{"Molecule": "CN(c1ccc(-c2cc3ccncc3s2)nn1)[C@H]1C[C@@H]2CC[C@@H](N2)[C@H]1F [Compound 65B]", "Assay Readout": "EC50", "Test Value": "51 to 100 nM"}
{"Molecule": "CN(c1ccc(-c2cc3cccnc3cc2O)nn1)[C@H]1C[C@@H]2CC[C@@H](N2)[C@H]1F [Compound 74B]", "Assay Readout": "EC50", "Test Value": "0.01 to 15 nM"}
{"Molecule": "CN(c1ccc(-c2cc3ccncc3cc2O)nn1)[C@@H]1C[C@H]2CC[C@H](N2)[C@@H]1F (single isomer, unassigned) [Compound 87A]", "Assay Readout": "EC50", "Test Value": "51 to 100 nM"}
{"Molecule": "CN(c1ccc(-c2ccc(-c3cc[nH]n3)cc2O)nn1)[C@@H]1C[C@H]2CC[C@H](N2)[C@@H]1F (single isomer, unassigned) [Compound 33A]", "Assay Readout": "EC50", "Test Value": "16 to 50 nM"}

---

- System: MDR1
- Run Description: Blood-brain-barrier (BBB) penetration potential via MDCK-MDR1 permeability assay
- Setup Conditions: dog, MDCK-MDR1, pH 7.4, MDCK-MDR1: Efflux, efflux ratio
Quick list: efflux ratio at 120 min, 5 μM per entry.

{"Compound": "CN(c1ccc(-c2ccc(-n3cnc(C#N)c3)cc2O)nn1)[C@@H]1C[C@H]2CC[C@H](N2)[C@@H]1F [Compound 69A]", "efflux ratio at 120 min, 5 μM": 29}
{"Compound": "CN(c1ccc(-c2ccc(C#N)cc2O)nn1)[C@@H]1C[C@H]2CCC[C@H](N2)[C@@H]1F [Compound 39A]", "efflux ratio at 120 min, 5 μM": 5}
{"Compound": "CN(c1ccc(-c2cc3ccncc3s2)nn1)[C@H]1C[C@@H]2CC[C@@H](N2)[C@H]1F [Compound 65B]", "efflux ratio at 120 min, 5 μM": 8}
{"Compound": "CN(c1ccc(-c2ccc(-c3ccn(C)n3)cc2O)nn1)[C@@H]1C[C@H]2CC[C@H](N2)[C@@H]1F (single isomer, unassigned) [Compound 36A]", "efflux ratio at 120 min, 5 μM": 10}
{"Compound": "CN(c1ccc(-c2ccc(-c3cnn(C)c3)cc2O)nn1)[C@H]1C[C@@H]2CCC[C@@H](N2)[C@H]1F [Compound 15B]", "efflux ratio at 120 min, 5 μM": 12}
{"Compound": "CC#Cc1ccc(-c2ccc(N(C)[C@@H]3C[C@H]4CC[C@H](N4)[C@@H]3F)nn2)c(O)c1 (single isomer, unassigned) [Compound 30A]", "efflux ratio at 120 min, 5 μM": 2}
{"Compound": "CN(c1ccc(-c2ccc(-c3cnn(C(F)F)c3)cc2O)nn1)[C@@H]1C[C@H]2CCC[C@H](N2)[C@@H]1F [Compound 21A]", "efflux ratio at 120 min, 5 μM": 10}
{"Compound": "CN(c1ccc(-c2cc3ncn(CC(F)(F)F)c(=O)c3cc2O)nn1)[C@H]1C[C@@H]2CC[C@@H](N2)[C@H]1F [Compound 81B]", "efflux ratio at 120 min, 5 μM": 138}
{"Compound": "C#Cc1ccc(-c2ccc(N(C)[C@H]3C[C@@H]4CC[C@@H](N4)[C@H]3F)nn2)c(O)c1 [Compound 10B]", "efflux ratio at 120 min, 5 μM": 2}
{"Compound": "Cc1cnc(-c2ccc(-c3ccc(N(C)C4CC5CCC(N5)C4F)nn3)c(O)c2)o1 (single isomer, unassigned) [Compound 48B]", "efflux ratio at 120 min, 5 μM": 4}
{"Compound": "CN(c1ccc(-c2cc3c(F)cn(C)c(=O)c3cc2O)nn1)[C@@H]1C[C@H]2CC[C@H](N2)[C@@H]1F [Compound 54A]", "efflux ratio at 120 min, 5 μM": 23}
{"Compound": "CN(c1ccc(-c2cc3occc(=O)c3cc2O)nn1)[C@@H]1C[C@H]2CC[C@H](N2)[C@@H]1F [Compound 43A]", "efflux ratio at 120 min, 5 μM": 11}
{"Compound": "CN(c1ccc(-c2cc3ncn(CC(F)(F)F)c(=O)c3cc2O)nn1)[C@H]1C[C@@H]2CCC[C@@H](N2)[C@H]1F [Compound 58B]", "efflux ratio at 120 min, 5 μM": 126}
{"Compound": "CN(c1ccc(-c2cc(F)c(-n3ccnn3)cc2O)nn1)[C@@H]1C[C@H]2CC[C@H](N2)[C@@H]1F [Compound 52A]", "efflux ratio at 120 min, 5 μM": 8}
{"Compound": "CN(c1ccc(-c2ccc(-n3ccnc3)cc2O)nn1)[C@@H]1C[C@H]2CCC[C@H](N2)[C@@H]1F [Compound 11A]", "efflux ratio at 120 min, 5 μM": 19}
{"Compound": "CN(c1ccc(-c2ccc(-c3cc[nH]n3)cc2O)nn1)[C@@H]1C[C@H]2CC[C@H](N2)[C@@H]1F (single isomer, unassigned) [Compound 33A]", "efflux ratio at 120 min, 5 μM": 31}
{"Compound": "CN(c1ccc(-c2ccc(-n3cnc(C#N)c3)cc2O)nn1)[C@H]1C[C@@H]2CCC[C@@H](N2)[C@H]1F [Compound 63B]", "efflux ratio at 120 min, 5 μM": 19}
{"Compound": "CN(c1ccc(-c2ccc(-c3cnn(C)c3)cc2O)nn1)[C@@H]1C[C@H]2CCC[C@H](N2)[C@@H]1F [Compound 15A]", "efflux ratio at 120 min, 5 μM": 12}
{"Compound": "CN(c1ccc(-c2cc3ncccc3cc2O)nn1)[C@H]1C[C@@H]2CCC[C@@H](N2)[C@H]1F [Compound 78B]", "efflux ratio at 120 min, 5 μM": 12}
{"Compound": "CN(c1ccc(-c2ccc(-c3ccccn3)cc2O)nn1)[C@@H]1C[C@H]2CCC[C@H](N2)[C@@H]1F [Compound 23A]", "efflux ratio at 120 min, 5 μM": 10}
{"Compound": "CN(c1ccc(-c2ccc(-n3ccnn3)cc2O)nn1)[C@@H]1C[C@H]2CCC[C@H](N2)[C@@H]1F [Compound 62A]", "efflux ratio at 120 min, 5 μM": 18}
{"Compound": "CN(c1ccc(-c2ccc(-c3cnn(C)c3)cc2O)nn1)[C@@H]1C[C@H]2CC(F)(F)[C@@H](C1)N2", "efflux ratio at 120 min, 5 μM": 2}
{"Compound": "CN(c1ccc(-c2cc3ccncc3s2)nn1)[C@@H]1C[C@H]2CC[C@H](N2)[C@@H]1F [Compound 65A]", "efflux ratio at 120 min, 5 μM": 9}
{"Compound": "CN(c1ccc(-c2cc3nccnc3cc2O)nn1)[C@H]1C[C@@H]2CC[C@@H](N2)[C@H]1F [Compound 88B]", "efflux ratio at 120 min, 5 μM": 7}
{"Compound": "CN(c1ccc(-c2cc3cccnc3cc2O)nn1)[C@H]1C[C@@H]2CCC[C@@H](N2)[C@H]1F [Compound 41B]", "efflux ratio at 120 min, 5 μM": 14}
{"Compound": "CN(c1ccc(-c2ccc(-n3ccnc3)cc2O)nn1)[C@H]1C[C@@H]2CC[C@@H](N2)[C@H]1F", "efflux ratio at 120 min, 5 μM": 18}
{"Compound": "CN(c1ccc(-c2cc3ncccc3cc2O)nn1)[C@@H]1C[C@H]2CC[C@H](N2)[C@@H]1F [Compound 73A]", "efflux ratio at 120 min, 5 μM": 21}
